Measured values drawn from ChEMBL document CHEMBL4052763 for this set.

assay: Clearance in iv dosed Sprague-Dawley rat; type: ADME, organism-based; details: in vivo
Observed Property: clearance (mL/min/kg)

Solved entries:
Nc1nc(Nc2ccc(N3CCN(C4CC5CCC4C5)CC3)cc2)nn1-c1nccc2ccccc12 (racemic) = 52
Nc1nc(Nc2ccc(N3CCN(C4CC5CCC4C5)CC3)cc2)nn1-c1ncnc2ccc(F)cc12 (racemic) = 44

(P) Cc1csc2c(-n3nc(Nc4ccc(N5CCN(C6CC7CCC6C7)CC5)cc4)nc3N)nc(Cl)nc12 (racemic)
(Q) COc1cc2ncnc(-n3nc(Nc4ccc(N5CCN(C6CC7CCC6C7)CC5)c(Cl)c4)nc3N)c2cc1OC (centres undefined)
Param metric = clearance; output whichever of P , Q has the minimum value. The response must carry the label of the picked entry.
P

----------
target: Insulin receptor (Homo sapiens, UniProt P06213); test: Inhibition of insulin stimulated INSR phosphorylation in human HeLa cells preincubated for 1 hr followed by insulin addition measured after 5 mins by Western blot analysis
Sequence (P06213 28-758 limits assumed): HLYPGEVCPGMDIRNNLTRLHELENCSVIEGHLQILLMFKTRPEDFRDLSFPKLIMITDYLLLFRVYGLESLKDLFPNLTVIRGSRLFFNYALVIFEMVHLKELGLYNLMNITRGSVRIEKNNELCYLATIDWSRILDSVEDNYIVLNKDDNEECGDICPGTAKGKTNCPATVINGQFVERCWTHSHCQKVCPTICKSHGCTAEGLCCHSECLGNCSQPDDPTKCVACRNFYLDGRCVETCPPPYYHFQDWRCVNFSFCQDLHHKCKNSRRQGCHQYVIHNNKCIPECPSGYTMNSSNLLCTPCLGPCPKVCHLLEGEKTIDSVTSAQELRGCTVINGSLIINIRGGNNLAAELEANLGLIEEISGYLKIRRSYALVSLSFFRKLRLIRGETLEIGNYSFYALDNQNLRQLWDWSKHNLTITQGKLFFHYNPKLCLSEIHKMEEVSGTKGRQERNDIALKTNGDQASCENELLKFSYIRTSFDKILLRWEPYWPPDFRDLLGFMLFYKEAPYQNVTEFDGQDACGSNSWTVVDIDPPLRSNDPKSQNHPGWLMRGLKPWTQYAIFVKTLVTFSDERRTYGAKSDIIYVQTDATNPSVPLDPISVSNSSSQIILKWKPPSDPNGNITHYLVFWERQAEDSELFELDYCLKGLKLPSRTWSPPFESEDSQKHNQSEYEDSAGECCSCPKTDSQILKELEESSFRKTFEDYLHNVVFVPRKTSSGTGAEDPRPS
Sequence (P06213 763-1382 limits assumed): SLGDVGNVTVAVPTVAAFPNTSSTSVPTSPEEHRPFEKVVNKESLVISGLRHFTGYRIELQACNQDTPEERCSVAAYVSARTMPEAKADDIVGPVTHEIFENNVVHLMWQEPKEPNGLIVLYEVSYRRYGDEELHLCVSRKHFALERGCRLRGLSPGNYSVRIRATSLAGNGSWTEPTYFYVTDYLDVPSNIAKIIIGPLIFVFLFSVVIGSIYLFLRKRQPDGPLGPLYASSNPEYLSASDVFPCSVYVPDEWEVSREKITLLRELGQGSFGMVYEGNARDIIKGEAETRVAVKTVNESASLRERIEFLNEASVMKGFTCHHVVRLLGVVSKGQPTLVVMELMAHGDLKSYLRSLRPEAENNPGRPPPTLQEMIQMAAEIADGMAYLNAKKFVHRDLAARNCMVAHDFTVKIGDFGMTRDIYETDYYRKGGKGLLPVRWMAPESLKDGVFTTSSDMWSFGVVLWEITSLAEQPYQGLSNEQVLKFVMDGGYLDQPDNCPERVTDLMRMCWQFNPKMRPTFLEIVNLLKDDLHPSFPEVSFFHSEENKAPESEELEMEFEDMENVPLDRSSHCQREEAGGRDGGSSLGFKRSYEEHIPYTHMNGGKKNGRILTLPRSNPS
pEC50: −log10 of the molar value.
Observed Property: pEC50

Nc1nc(Nc2ccc(OCCN3CCCC3)cc2)nn1-c1ncnc2ccc(F)cc12 = 6.90

(1) Nc1nc(Nc2ccc(OCCN3CCCC3)cc2)nn1-c1ncnc2ccc(Cl)cc12
(2) Nc1nc(Nc2ccc(OCCN3CCCC3)cc2)nn1-c1ncnc2c1CCC2
(3) Nc1nc(Nc2ccc(OCCN3CCCC3)c(F)c2)nn1C(=O)c1ccc(N2CCOCC2)cc1
(4) COc1cc2ncnc(-n3nc(Nc4ccc(N5CCN(C6CCCCC6)CC5)c(F)c4)nc3N)c2cc1OC
Ascending by pEC50, please. Reply with the item labels sorted in the order that was asked for.
4, 3, 2, 1

----------
molecular target: Vascular endothelial growth factor receptor 2 (Homo sapiens, UniProt P35968); assay: Inhibition of VEGF stimulated VEGFR2 phosphorylation at […] residues in HUVEC preincubated for 1 hr followed by VEGF addition measured after 5 mins by Western blot analysis
Sequence (P35968 whole entry): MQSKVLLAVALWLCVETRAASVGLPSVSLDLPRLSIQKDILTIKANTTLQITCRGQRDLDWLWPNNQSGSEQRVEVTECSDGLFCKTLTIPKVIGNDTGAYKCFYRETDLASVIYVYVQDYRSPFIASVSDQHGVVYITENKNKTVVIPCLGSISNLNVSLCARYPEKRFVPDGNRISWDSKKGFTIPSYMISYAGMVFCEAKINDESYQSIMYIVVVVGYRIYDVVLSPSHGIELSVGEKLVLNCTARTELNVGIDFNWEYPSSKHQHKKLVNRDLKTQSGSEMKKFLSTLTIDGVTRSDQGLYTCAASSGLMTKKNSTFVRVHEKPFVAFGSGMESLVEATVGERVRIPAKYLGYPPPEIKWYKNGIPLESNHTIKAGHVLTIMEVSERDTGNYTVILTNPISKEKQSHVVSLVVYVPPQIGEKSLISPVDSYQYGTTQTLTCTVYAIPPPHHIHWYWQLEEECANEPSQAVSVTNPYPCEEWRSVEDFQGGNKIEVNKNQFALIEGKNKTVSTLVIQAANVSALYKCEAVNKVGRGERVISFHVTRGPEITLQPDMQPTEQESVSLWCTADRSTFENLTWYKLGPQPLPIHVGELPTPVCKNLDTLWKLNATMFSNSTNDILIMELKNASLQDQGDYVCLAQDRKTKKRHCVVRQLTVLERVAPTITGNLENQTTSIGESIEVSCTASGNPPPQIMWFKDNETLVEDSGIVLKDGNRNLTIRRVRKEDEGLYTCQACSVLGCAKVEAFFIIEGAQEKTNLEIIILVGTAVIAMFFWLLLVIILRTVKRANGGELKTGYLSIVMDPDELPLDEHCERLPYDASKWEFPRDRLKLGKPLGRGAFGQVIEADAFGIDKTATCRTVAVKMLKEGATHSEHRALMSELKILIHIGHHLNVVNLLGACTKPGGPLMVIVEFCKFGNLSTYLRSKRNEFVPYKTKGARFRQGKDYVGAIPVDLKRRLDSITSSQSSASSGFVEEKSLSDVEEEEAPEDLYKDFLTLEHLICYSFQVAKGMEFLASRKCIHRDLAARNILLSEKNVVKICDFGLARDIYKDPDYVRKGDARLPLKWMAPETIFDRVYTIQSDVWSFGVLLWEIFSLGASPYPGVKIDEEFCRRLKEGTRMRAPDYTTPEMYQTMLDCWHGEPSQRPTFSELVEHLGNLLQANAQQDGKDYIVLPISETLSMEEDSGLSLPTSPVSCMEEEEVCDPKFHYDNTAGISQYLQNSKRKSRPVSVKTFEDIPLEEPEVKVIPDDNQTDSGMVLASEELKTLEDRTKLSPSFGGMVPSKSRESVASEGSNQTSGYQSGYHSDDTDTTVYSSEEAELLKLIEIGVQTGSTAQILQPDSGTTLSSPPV
pEC50: −log10 of the molar value.
Observed Property: pEC50

Cc1csc2c(-n3nc(Nc4ccc(N5CCN(C6CC7CCC6C7)CC5)c(F)c4)nc3N)ncnc12 (racemic) = 7.05
COc1cc2ncnc(-n3nc(Nc4ccc(N5CC[C@H](N(C)C)C5)cc4)nc3N)c2cc1OC = 7.72
Nc1nc(Nc2ccc(N3CCN(C4CC5CCC4C5)CC3)c(Cl)c2)nn1-c1ncnc2sccc12 (racemic) = 6.80
Nc1nc(Nc2ccc(N3CCN(C4CC5CCC4C5)CC3)cc2)nn1-c1ncnc2ccsc12 (racemic) = 7.62

(P) COc1cc2ncnc(-n3nc(Nc4ccc(N5CCN(C6CCCCC6)CC5)c(F)c4)nc3N)c2cc1OC
(Q) Cc1nc(-n2nc(Nc3ccc(N4CCN(C5CC6CCC5C6)CC4)cc3)nc2N)c2ccccc2n1 (racemic)
(R) COc1cc2ncnc(-n3nc(Nc4ccc(N5CCN(C)CC5)cc4)nc3N)c2cc1OC
(S) Nc1nc(Nc2ccc(N3CCN(C4CC5CCC4C5)CC3)cc2)nn1-c1ncnc2ccc(Cl)cc12 (racemic)
Ascending by pEC50, please. Reply with the item labels sorted in the order that was asked for.
S, Q, P, R
(S: 6.71, Q: 6.98, P: 7.59, R: 8.52)

----------
assay: Oral bioavailability in Sprague-Dawley rat; format: ADME, organism-based; conditions: in vivo
Observed Property: bioavailability

Report bioavailability for `Nc1nc(Nc2ccc(OCCN3CCCC3)c(F)c2)nn1C(=O)c1ccc(N2CCOCC2)cc1` please.
< 1%
